TARGET SYSTEM: RXRα (Homo sapiens)
Sequence (P19793 227-458 limits assumed): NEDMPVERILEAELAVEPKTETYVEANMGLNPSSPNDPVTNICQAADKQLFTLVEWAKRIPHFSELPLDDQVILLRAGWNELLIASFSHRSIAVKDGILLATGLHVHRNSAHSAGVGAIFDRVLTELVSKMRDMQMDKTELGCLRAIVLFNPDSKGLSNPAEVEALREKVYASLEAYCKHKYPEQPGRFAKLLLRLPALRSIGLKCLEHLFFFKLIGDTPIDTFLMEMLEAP
PROCEDURE TEXT: Transactivation, ER/RXR-α hybrid receptor + ERE-CAT reporter cotransfected in HeLa cells
REPORTED METRIC: EC50 (µM)
Quick reminder: number only, in µM, skip the unit.

Note to self: EC50 recorded for `C/C(=C\c1ccc(C(=O)O)cc1)c1ccc2c(c1)C(C)(C)CCC2(C)C` was 15

Would you kindly look at the next entry?
Note to self: EC50 recorded for `C/C(=C\c1cc(C(=O)O)cs1)c1cc2c(cc1C)C(C)(C)CCC2(C)C` was 0.1

The measurements presented in this section are drawn from patent US6573271B2.
